Sourced from patent US6350762B1

target.under.test: L-type calcium channel (Rattus norvegicus, UniProt P22002)
Construct: The slips of thoracic aorta extracted from Wistar rats were used
Sequence (P22002 whole entry): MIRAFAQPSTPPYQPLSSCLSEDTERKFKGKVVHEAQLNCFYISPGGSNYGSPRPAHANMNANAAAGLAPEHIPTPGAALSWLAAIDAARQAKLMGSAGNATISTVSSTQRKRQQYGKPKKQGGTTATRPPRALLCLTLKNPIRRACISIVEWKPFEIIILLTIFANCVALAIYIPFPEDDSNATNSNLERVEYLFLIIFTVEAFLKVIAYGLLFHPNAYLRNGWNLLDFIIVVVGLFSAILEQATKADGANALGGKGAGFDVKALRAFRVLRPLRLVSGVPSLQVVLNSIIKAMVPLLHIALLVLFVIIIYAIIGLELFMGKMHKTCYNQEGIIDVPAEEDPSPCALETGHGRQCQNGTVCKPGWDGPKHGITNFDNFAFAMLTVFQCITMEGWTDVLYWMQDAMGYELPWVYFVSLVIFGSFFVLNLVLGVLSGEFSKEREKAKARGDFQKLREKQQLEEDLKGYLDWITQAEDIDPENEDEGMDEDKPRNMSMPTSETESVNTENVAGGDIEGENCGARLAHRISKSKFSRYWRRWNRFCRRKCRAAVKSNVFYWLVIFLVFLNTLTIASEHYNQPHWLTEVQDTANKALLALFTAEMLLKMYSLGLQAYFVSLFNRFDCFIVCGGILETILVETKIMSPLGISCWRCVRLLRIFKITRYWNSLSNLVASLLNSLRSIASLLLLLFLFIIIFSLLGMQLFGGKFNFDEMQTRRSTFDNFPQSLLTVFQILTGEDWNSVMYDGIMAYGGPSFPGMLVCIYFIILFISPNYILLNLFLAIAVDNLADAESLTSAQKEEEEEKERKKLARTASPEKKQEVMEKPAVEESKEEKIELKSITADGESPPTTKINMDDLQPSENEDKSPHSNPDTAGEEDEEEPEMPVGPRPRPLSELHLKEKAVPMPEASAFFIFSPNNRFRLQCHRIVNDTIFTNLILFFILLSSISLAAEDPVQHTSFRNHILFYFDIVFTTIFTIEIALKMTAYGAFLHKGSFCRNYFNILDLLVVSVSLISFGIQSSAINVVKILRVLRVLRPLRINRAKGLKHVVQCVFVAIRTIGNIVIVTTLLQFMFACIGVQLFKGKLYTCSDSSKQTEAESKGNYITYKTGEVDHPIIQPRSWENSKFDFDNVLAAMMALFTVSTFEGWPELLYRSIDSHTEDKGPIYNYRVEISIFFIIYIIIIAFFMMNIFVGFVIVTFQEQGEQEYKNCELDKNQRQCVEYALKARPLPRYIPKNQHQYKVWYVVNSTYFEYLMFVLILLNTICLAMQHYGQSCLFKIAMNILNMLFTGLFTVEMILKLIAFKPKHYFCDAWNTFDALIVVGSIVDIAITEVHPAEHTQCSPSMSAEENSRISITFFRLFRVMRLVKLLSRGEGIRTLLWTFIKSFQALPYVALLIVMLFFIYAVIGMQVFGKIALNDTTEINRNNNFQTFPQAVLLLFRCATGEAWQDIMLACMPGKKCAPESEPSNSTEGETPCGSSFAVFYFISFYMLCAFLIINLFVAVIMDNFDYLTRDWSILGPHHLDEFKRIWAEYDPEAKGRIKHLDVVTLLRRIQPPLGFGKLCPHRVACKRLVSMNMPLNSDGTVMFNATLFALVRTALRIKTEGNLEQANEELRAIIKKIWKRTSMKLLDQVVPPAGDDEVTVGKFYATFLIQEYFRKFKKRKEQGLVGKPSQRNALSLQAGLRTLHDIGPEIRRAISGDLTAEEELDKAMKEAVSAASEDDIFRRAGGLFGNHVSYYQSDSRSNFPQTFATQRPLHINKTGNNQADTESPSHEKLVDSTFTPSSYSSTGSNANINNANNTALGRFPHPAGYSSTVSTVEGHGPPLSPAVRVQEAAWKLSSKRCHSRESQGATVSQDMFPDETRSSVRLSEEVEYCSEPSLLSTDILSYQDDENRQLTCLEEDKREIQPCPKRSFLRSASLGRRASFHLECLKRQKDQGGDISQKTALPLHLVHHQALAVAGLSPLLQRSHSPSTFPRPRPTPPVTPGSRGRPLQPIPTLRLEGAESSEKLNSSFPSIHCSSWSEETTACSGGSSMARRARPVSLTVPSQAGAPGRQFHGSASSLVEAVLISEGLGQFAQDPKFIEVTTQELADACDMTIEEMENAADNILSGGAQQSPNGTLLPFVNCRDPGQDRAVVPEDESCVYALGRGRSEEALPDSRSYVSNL
Sequence (P54290 25-944 partner limits assumed): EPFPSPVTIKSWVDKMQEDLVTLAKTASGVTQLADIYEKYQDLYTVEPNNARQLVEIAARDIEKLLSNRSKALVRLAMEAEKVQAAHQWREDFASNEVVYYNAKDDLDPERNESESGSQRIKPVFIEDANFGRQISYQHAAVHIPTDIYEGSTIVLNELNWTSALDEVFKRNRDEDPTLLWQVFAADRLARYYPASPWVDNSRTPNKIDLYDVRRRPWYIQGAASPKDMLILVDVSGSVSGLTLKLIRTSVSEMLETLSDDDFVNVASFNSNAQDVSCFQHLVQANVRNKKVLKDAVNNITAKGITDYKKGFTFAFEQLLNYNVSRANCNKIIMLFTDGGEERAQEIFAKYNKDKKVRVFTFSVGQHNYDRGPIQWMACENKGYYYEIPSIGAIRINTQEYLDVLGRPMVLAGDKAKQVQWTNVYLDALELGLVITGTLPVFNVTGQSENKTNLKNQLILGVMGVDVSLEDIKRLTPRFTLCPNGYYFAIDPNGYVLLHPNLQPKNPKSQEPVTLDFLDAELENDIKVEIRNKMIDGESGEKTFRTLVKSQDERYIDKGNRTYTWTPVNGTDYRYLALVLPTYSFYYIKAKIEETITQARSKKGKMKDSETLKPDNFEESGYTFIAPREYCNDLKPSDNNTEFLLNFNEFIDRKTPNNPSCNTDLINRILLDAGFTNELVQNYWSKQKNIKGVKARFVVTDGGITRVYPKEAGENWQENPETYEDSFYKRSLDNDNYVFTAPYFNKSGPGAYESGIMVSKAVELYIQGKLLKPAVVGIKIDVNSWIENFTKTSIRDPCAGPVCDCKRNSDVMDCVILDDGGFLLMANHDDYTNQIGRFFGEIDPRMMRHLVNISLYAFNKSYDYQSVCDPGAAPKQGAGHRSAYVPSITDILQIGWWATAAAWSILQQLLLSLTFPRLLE
Sequence (P54290 945-1091 partner limits assumed): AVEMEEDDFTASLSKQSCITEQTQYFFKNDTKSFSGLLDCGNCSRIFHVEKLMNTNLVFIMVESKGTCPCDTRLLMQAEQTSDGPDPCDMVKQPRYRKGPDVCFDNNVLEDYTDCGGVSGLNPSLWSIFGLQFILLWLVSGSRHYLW
Sequence (P54287 whole entry partner): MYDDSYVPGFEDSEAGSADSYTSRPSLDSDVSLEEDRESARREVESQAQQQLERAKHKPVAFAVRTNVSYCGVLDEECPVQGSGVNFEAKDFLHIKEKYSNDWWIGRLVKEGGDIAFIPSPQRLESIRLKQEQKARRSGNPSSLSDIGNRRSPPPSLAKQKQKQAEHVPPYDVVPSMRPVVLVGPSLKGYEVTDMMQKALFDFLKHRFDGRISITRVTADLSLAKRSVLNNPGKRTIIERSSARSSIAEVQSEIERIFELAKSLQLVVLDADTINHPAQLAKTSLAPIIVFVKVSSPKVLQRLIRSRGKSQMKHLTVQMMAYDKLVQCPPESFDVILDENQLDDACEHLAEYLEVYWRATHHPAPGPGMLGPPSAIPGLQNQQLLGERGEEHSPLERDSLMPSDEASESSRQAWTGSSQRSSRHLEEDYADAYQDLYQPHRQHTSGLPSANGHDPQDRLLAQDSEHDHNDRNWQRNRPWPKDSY
test: Activity of inhibiting L-type calcium channel: relaxation of KCl contraction of isolated rat thoracic aorta
test.parameters: KCl contraction of isolated rat thoracic aorta; read-out: L-type inhibition IC50
pIC50: −log10 of the molar value.
# pIC50 per record follows

Use the examples below as a reference point.
>  <compound>
CC1=C(C(=O)O)C(c2ccc([N+](=O)[O-])cc2)C(C(=O)NCC=Cc2ccccc2)=C(C)N1 (stereo not drawn) [Example 17]

>  <result.type>
pIC50

>  <measured>
< 6.00

$$$$
>  <compound>
CC1=C(C(=O)O)C(c2cccc([N+](=O)[O-])c2)C(C(=O)NC/C=C/c2ccccc2)=C(C)N1 (stereo not drawn) [Example 4]

>  <result.type>
pIC50

>  <measured>
6.04

$$$$

Now for the compound whose pIC50 we want.
Need pIC50 of CC1=C(C(=O)O)C(c2cccc(Cl)c2)C(C(=O)NCC=Cc2ccccc2)=C(C)N1 (stereo not drawn) [Example 1] , thanks.
< 6.00
